Molecular target: T1, trans-heterodimer Hera_1-419/Hera_370-510 (Thermus thermophilus, UniProt O07897;O07897 1-419;370-510)
T1 sequence 1: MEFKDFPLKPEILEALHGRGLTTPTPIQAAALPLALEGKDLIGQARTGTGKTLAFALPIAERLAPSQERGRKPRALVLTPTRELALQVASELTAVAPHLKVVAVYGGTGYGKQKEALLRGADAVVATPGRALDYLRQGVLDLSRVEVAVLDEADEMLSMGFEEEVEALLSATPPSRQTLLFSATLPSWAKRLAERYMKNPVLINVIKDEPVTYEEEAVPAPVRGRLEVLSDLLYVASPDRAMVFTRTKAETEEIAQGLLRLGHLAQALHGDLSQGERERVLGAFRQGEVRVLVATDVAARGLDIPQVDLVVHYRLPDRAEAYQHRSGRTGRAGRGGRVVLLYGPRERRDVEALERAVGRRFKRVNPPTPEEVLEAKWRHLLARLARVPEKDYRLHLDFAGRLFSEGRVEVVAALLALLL
T1 sequence 2: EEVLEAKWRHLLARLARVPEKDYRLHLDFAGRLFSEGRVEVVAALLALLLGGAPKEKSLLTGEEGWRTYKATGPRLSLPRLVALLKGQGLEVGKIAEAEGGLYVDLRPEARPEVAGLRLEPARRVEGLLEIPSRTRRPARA
Assay: stopped-flow fluorescence
OUTCOME MEASURE: pKd
# log scale: pKd equals minus log10 of the concentration in mol/L

# binder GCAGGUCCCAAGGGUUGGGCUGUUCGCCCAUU (structured_RNA) [fl-32mer] ; its pKd = 5.14
